Data origin: PubChem BioAssay (Tox21)

test: qHTS assay for small molecules that induce genotoxicity in human embryonic kidney cells expressing luciferase-tagged ATAD5 - cell viability (AID 651634); conditions: HEK293T ATAD5-luc cells viability, CellTiter-Fluor, 15.5 h; series mostly up to 83.3 µM; note: nearly all actives have a fitted effect of over 25% in size
Results filed as inconclusive are left out. Active and inactive are the calls of the source. Calls come from the whole dose curve.
Classes used: TRUE for active, FALSE for inactive

- compound: "CC(O)[C@@H]1NC(=O)[C@H](Cc2ccccc2)NC(=O)[C@H](C(C)O)NC(=O)[C@H](CCCCN)NC(=O)[C@H](Cc2c[nH]c3ccccc23)NC(=O)[C@H](Cc2ccccc2)NC(=O)[C@H](Cc2ccccc2)NC(=O)[C@H](CC(N)=O)NC(=O)[C@H](CCCCN)NC(=O)[C@@H](NC(=O)CNC(=O)[C@H](C)N)CSSC[C@@H](C(=O)O)NC(=O)[C@H](CO)NC1=O (stereo partly specified)"
  qualitativeLabel: "FALSE"
- compound: "C#CCC(Cc1cnc2nc(N)nc(N)c2n1)c1ccc(C(=O)N[C@@H](CCC(=O)O)C(=O)O)cc1 (stereo partly specified)"
  qualitativeLabel: "TRUE"
- compound: "COc1cc(-c2ccc(-[n+]3nc(-c4ccccc4)nn3-c3ccc([N+](=O)[O-])cc3)c(OC)c2)ccc1-[n+]1nc(-c2ccccc2)nn1-c1ccc([N+](=O)[O-])cc1"
  qualitativeLabel: "TRUE"
- compound: "C[N@+]12CCCC[C@@H]1CCC(=C(c1cccs1)c1cccs1)C2"
  qualitativeLabel: "FALSE"
- compound: "CSc1nc2cc(Oc3cccc(Cl)c3Cl)c(Cl)cc2[nH]1"
  qualitativeLabel: "TRUE"
- compound: "NC(=O)c1ccc[n+]([C@@H]2O[C@H](COP(=O)([O-])OP(=O)(O)OC[C@H]3O[C@@H](n4cnc5c(N)ncnc54)[C@H](O)[C@@H]3O)[C@@H](O)[C@H]2O)c1"
  qualitativeLabel: "FALSE"
